Form field: pIC50 (one value per entry).
target: MCL1/Bim (Homo sapiens (Human), UniProt Q07820); assay: MCL1/Bim Binding AlphaLISA Assay; details: recombinant human 6xHis-MCL1 (171-327), biotinylated Bim peptide (51-76)
Sequence (Q07820 171-327): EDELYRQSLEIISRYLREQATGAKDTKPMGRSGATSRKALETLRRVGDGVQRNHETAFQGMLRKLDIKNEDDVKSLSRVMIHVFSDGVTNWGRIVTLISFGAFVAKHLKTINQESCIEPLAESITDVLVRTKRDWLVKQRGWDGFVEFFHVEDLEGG
pIC50 here is simply -log10 of the concentration when that concentration is written in mol/L.

Some compounds with known pIC50 results, for comparison:
compound="CO[C@H]1/C=C/C[C@H](C)[C@@H](C)[S@@](=O)(NC(=O)c2cnn(C)c2)=NC(=O)c2ccc3c(c2)N(C[C@@H]2CC[C@H]21)C[C@]1(CO3)C[C@@H]2C[C@@H]2c2cc(Cl)ccc21 [Example 171]" readout_value=9.75
compound="COC[C@@H]1CC=C[C@@H](OC)[C@@H]2CC[C@H]2CN2C[C@@]3(CCCc4cc(Cl)ccc43)COc3ccc(cc32)C(=O)N=[S@](=O)(NC(=O)COC2CCOCC2)C1 [Example 44]" readout_value=9.19

Now let's try a different one.
Requested read-out: pIC50. Entry: C[C@H]1C/C=C/[C@H](O)[C@@H]2CC[C@H]2CN2C[C@@]3(CCCc4cc(Cl)ccc43)COc3ccc(cc32)C(=O)N=[S@](=O)(Nc2nc(N3CCOCC3)nc3nn(C)cc23)C1 [Example 33]
10.72
